Values compiled from patent US20240301052A1.

Target: T1, human SLC34A2 (human, UniProt O95436 1-690)
T1 construct: whole, on cells; also called human solute carrier 34 A2; NaPi2b
T1 sequence (looked up): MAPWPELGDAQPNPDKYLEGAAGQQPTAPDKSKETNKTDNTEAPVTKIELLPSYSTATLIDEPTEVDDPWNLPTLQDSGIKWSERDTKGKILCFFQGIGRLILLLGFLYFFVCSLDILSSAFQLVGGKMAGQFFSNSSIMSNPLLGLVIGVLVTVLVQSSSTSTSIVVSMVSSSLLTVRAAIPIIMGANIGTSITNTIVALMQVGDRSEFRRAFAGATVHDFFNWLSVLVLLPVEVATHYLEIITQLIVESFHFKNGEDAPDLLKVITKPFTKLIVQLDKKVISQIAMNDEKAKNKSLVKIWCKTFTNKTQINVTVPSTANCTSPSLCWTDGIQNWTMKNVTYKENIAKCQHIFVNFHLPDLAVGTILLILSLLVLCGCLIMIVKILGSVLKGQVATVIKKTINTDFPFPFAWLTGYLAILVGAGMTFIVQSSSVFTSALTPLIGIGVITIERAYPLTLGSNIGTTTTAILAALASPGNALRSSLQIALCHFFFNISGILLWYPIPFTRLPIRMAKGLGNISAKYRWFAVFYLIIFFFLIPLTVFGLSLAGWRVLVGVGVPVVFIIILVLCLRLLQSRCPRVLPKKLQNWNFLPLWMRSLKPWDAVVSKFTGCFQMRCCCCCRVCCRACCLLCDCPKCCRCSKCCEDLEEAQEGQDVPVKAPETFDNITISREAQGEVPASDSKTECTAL
Test: FACS, RMG-1 cells
Quantity name: pEC50
Would you please state pEC50, meaning minus log10 of the concentration in mol/L, as a bare number?

// known answers, use as guide
{"columns": ["Binder", "Measurement"],
 "data": [
  ["91C9F1.p1 hIgG1 (antibody, V domains shown, PTM-derisked chimeric, hIgG1; also called 91C9F1.pl hIgG1) VH: EVQLQQSGPELVKPGTSVKISCKTSGFFFTEYIIHWVKQSHGRSLEWIGGIIPNNDVTNYKQNFRGKAALTADKSSNTAYMELRSLTSEDSAVYYCARWRNAYYSAMDSWGQGTSVTVSS VL: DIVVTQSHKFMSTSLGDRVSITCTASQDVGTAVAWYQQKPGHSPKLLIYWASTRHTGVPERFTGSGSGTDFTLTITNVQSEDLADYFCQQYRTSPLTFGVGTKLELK", 8.96],
  ["30H9B8F9.p1.z5 hIgG1 (antibody, V domains shown, humanized hIgG1) VH: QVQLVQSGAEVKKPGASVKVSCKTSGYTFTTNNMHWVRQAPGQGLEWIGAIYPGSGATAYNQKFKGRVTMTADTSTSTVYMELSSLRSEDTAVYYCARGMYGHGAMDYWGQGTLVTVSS VL: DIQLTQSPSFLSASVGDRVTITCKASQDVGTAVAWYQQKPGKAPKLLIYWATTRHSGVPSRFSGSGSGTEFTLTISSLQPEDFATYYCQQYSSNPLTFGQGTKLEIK", 8.86]
]}

Query binder follows.
# input binder: xi62G10E4G8 hIgG1 (antibody, V domains shown, chimeric, hIgG1) VH: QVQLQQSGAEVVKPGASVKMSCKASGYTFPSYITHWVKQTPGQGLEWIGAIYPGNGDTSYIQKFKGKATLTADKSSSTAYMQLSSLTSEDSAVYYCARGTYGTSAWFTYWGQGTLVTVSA VL: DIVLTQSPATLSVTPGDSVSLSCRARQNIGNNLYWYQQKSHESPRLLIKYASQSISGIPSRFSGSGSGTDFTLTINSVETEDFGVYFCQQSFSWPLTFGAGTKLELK ; wanted: its pEC50 8.10
